Biological target: T1, canine OX40L, full length membrane form, expressed on HEK293 cells (canine)
T1 construct: also called OX40L expressing HEK; HEK OX40L cells
T1 chain: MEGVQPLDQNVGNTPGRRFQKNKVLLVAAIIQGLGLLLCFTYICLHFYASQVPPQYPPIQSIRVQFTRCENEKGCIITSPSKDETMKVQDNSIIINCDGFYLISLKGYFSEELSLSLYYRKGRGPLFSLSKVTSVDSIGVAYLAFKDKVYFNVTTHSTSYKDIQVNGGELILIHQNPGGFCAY
Assay: flow cytometry
Known GEO mean OX40L expressing HEK of a selection of binders
Write the number on its own, no unit after it.

Use these answered entries as a reference point.
[
  {
    "binder": "PMX063 (antibody, V domains shown, also called PMX63) VH: EVQLVESGGDLVRPGGSLRLSCVASGFTFNNYHMSWVRQAPGKGLQWVAFINSGGSGTTFADVVRGRFTISRDYAKNALYLQMNSLRAEDTAVYYCASGSIWTHFDYWGQGTLVTVSS VL: SFVLTQLPSVSVTLRQTARITCGGDIIGSKNVYWYQQRLGQAPVLIIYRDNNRPTGIPERFSGASSGNTATLTISGALAEDEADYYCQVWDNSNKAMFGGGTHLTVL",
    "GEO mean OX40L expressing HEK": "3.18e+06"
  },
  {
    "binder": "PMX047 (antibody, V domains shown, also called PMX47) VH: EVQLVESGGDLVKPGGSLRLSCVASGFIFSSYSMSWVRQAPEKGLQLVAGINSAGSSTYYTDAVKGRFTISRDNAKNTVYLQMNSLRAEDTAIYYCAKRWVFDFWGQGTLVTVSS VL: HIVMTQTPLSLSVSPGEPASISCKASQSLLLSYGNTYLYWFRQKPGQSPQRLIYKVSNRDPGVPDRFSGSGSGTDFTLRISRVEADDAGVYYCGQGIQDPFTFGQGTKLEIK",
    "GEO mean OX40L expressing HEK": "1.95e+06"
  },
  {
    "binder": "PMX036 (antibody, V domains shown, also called PMX36) VH: EVQLVESGGDLVKPGGSLRLSCVASGFTFSSYHMSWVRQAPGKGLQWVAYITSGGRTTSYADAVKGRFTISRDNAKNTLYLQMNSLRAEDTAVYYCASDLVLVLGGADYWGQGTLVTVSS VL: SYELTQPPSVNVTLRETAHITCGGDSIGRKYVQWIQQNPGQAPVVIIYKDTNRPTGIPERFSGANSGNTATLTISGALAEDEADYYCQVGDSGTKAVFGGGTHLTVL",
    "GEO mean OX40L expressing HEK": "1.31e+06"
  },
  {
    "binder": "PMX156 (antibody, V domains shown) VH: ELQLVESGGDLVKPAGSLRLSCVASGFTFSNFRMSWVRQAPGKGLQFVAGINSDGYSTQYRDDVKGRFTISRDNTEKTLYLQMNNLRVEDTAMYYCVKDQGSWGGNFDYWGQGTLVTVSS VL: SYGLTQPPSVNVTLRETAHITCGGDSIGSKYVQWIQQIPGQAPVVIIYKDRNRPTGIPERFSGANSGNTATLTISGALAEDEADYYCQVGDSGTSVFGGGTHLTVL",
    "GEO mean OX40L expressing HEK": 680000
  },
  {
    "binder": "PMX294 (antibody, V domains shown) VH: EVQLVESGGDLVKPEGSLRLSCAVSGFTFSSNDMSWVRQAPGKGLQWVAYITYDGRSTSYTDIVKGRFTVSRDNAKNTLYLQMNSLRSEDAAVYYCAKAQRGWFFDYWGQGTLVTVSS VL: SYVLTQLPSVSVTLRQTARITCGGDSIGSKNVYWYQQKLGQAPVLIIYDDDSRPSGIPERISGANSGNTATLTISGALAEDEADYYCQVWDSSTGVFGGGTHLTVL",
    "GEO mean OX40L expressing HEK": 595000
  },
  {
    "binder": "PMX083 (antibody, V domains shown, also called PMX83) VH: EVQLVESGGDLVKPGGSLRLSCVASGFTFRTYHMSWVRQAPGKGLQWVAYITRDGISTTYTDAVKGRFTISRDNAKNTLFLQMNSLRADDTAVYYCASDLVLVLGAPFYWGQGTLVTVSS VL: SYELTQPPSVNVTLGETAHITCGGDSIGRKYVQWIQQNPGQAPVVIIYKDSNRPTGIPERFSGANSGNTATLTISGALAEDEADYYCQVGDSGTKAVFGEGTQLTVL",
    "GEO mean OX40L expressing HEK": 701000
  },
  {
    "binder": "PMX049 (antibody, V domains shown, also called PMX49) VH: EVQLVESGGDLVKPGGSLRLSCVASGFTFNNYEMYWVRQAPGKGLEWVARIYESGSTTFSAEAVTGRFTISRDNAKNMVYLQMNSLRAEDTAVYYCASASSSSWRFDYWGQGTLVTVSS VL: SYVLTQLPSVSVTLGQTARITCGGDSIGRKNVCWFQQRLGQAPELIIYDDRSRPSGIPERFSGANSGNTATLTISGALAEDEADYYCQVWDSSTGVFGGGTHLTVL",
    "GEO mean OX40L expressing HEK": "3.5e+06"
  },
  {
    "binder": "PMX108 (antibody, V domains shown) VH: EVQLVESGGDLVRPGGSLRLSCVASGFTFTNYHMSWVRQAPGKGLQWVAFINSGGSSTTYTDVVRGRFTISRDYAKNTLYLQMNSLTAEDTAVYYCASGAIWTHFDHWGQGTLVTVSS VL: SFVLTQLPSVSVTLRQTARITCGGDSVGSKSVYWYQQKLGQAPVLIIYRDSNRPTGIPERFSGASSGNTATLTISGALAEDEADYYCQVWDNSNKAIFGGGTHLTVL",
    "GEO mean OX40L expressing HEK": 611000
  },
  {
    "binder": "PMX107 (antibody, V domains shown) VH: AVQLVESGGDLVRPGGSLRLSCVASGFTFSSYHMNWVRQAPGKGLQWVAFINSGGSSTTYADVVRGRFTISRDYAKNTLFLQMNSLRAEDTAVYYCAIVSIWTHFDYWGQGTLVTVSS VL: SFVLTQLPSVSVTLRQTARITCGGDIIGSKNVYWYQQRLGQAPVLILYRDTNRPTGIPERFSGASSGNTATLTISGALAEDEADYYCQVWDNSNKAMFGGGTHLTVL",
    "GEO mean OX40L expressing HEK": 58800
  }
]

Consider now this further binder.
Task item: Suppose we examine the binder PMX060 (antibody, V domains shown, also called PMX60) VH: EVQLVESGGDLMKPGGSLRLSCVASGFTFSSFPMSWVRQAPGKGLQWVAYIHSGGSSTSYADAVKGRFTISRDNAKNTLYLQMNSLRAEDTAIYYCARTFPTVAADNWFYYWGQGTLVTVSS VL: SYVLTQLPSKNVTLKQAAHITCGGDNIGSKSVHWYQQKLGQAPVLIIYYDSSRPTGIPERFSGANSGNTATLTISGALAEDEADYYCQVWDSSAKWVFGEGTQLTVL ; what GEO mean OX40L expressing HEK value has been reported?
Reply: 3.1e+06
